- test-details: inhibitors of insulin promoter-driven GFP, primary screen, imaging, TRM-6 cells, eGFP reporter, cell count (AID 1273);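 as to normalized cell count: cells exposed to compound for 48 h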
- details: at 2 µM, reporter expression induced with tamoxifen; measured here: cell count, toxicity
In all, about 130,000 compounds went through this assay and about 1,200 (0.92%) were called active. Only a selection was taken, and actives are over-represented in it overall.
assay-readout: normalized cell count

-- ask normalized cell count lookup needed for COc1cc(C(=O)NCc2ccc(-n3cccc3)cc2)cc(OC)c1OC , thanks.
-- reply 69%

Further cases:
-- ask normalized cell count lookup needed for Cc1ccc2nc(Nc3ncc4c(n3)CC(C)(C)CC4=O)nc(C)c2c1 , thanks.
-- reply 96.8%

-- ask normalized cell count lookup needed for O=C(O)CCCc1ccccc1 , thanks.
-- reply 97.5%

-- ask normalized cell count lookup needed for Cc1cc(NC(=O)CN2C(=O)NC(CCc3ccccc3)C2=O)no1 (centres undefined) , thanks.
-- reply 76%

-- ask normalized cell count lookup needed for COC(=O)c1nc(NC(=O)c2ccc(F)cc2)n[nH]1 , thanks.
-- reply 129%

-- ask normalized cell count lookup needed for COCCCNC(=S)NNC(=O)C(O)(c1ccccc1)c1ccccc1 , thanks.
-- reply 100%

-- ask normalized cell count lookup needed for COc1ccc(C2CC(c3cccs3)=NN2C(=O)CSc2nncs2)cc1OC (centres undefined) , thanks.
-- reply 95.8%

-- ask normalized cell count lookup needed for O=C(CC1C(=O)NCCN1Cc1ccc(-c2ccccc2)cc1)NCc1ccncc1 (centres undefined) , thanks.
-- reply 65.4%

-- ask normalized cell count lookup needed for C1CC1Cc1noc(CN2CCN(CC3CC3)CC2)n1 , thanks.
-- reply 97.5%

---

- test-details: inhibitors of insulin promoter-driven GFP, primary screen, imaging, TRM-6 cells, eGFP reporter, cell count (AID 1273);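 as to normalized cell count: cells exposed to compound for 48 h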
- details: at 2 µM, reporter expression induced with tamoxifen; measured here: cell count, toxicity
Hit rate of the full screen: of about 130,000 compounds, about 1,200 (0.92%) were called active. Shown is part of a subset that was picked to be rich in actives.
# normalized cell count per record follows
Write the value in % as a bare number.

-- ask normalized cell count lookup needed for CCSc1nnc(NC(=O)c2ccc(C)cc2)s1 , thanks.
-- reply 45.1

-- ask normalized cell count lookup needed for Cc1cccc(N(C(=O)Cc2cccs2)C(C(=O)NC2CCCC2)c2ccsc2)c1 (configuration not stated) , thanks.
-- reply 119

-- ask normalized cell count lookup needed for O=C(O)C1C2CC2CN1C(=O)c1ccc(Cl)cc1Cl (configuration not stated) , thanks.
-- reply 121

Further cases:
-- ask normalized cell count lookup needed for COC(=O)c1cc(C)sc1NC(=O)CC1Nc2ccccc2NC1=O (configuration not stated) , thanks.
-- reply 145

-- ask normalized cell count lookup needed for CCN1CCN(c2ccc([N+](=O)[O-])cc2C(=O)c2ccc(Cl)cc2)CC1 , thanks.
-- reply 81.5

-- ask normalized cell count lookup needed for Cc1c(Nc2nc3ccccc3nc2NS(=O)(=O)c2cccs2)c(=O)n(-c2ccccc2)n1C , thanks.
-- reply 38.1

-- ask normalized cell count lookup needed for COc1ccc(N2CCN(c3ccc([N+](=O)[O-])cc3Cl)CC2)cc1 , thanks.
-- reply 106

-- ask normalized cell count lookup needed for CCOC(=O)c1ccc(NC(=O)C2CC(=O)Nc3nc4ccccc4n32)cc1 (configuration not stated) , thanks.
-- reply 131

---

- test-details: inhibitors of insulin promoter-driven GFP, primary screen, imaging, TRM-6 cells (human fetal islet line), eGFP reporter, cell count (AID 1273)
- details: at 2 µM, reporter expression induced with tamoxifen; stronger effect = higher value
Among all 130,000 compounds or so, about 1,200 (0.92%) were called active. This is one part of a sample in which actives are shown more often than they occur.
# inhibition per record follows
Write the value in % as a bare number.

Examples from the recorded data:
-- ask inhibition lookup needed for Cn1c(=O)n(CCc2ccccc2)c(=O)c2c1nc1n2CCCN1c1ccccc1 , thanks.
-- reply -196

-- ask inhibition lookup needed for O=C1c2ccccc2C(=O)N1CCC(O)C[N+](=O)[O-] (stereo not drawn) , thanks.
-- reply -17.6

-- ask inhibition lookup needed for Cc1cc(C)c2c(n1)nn1c(N3CCN(c4cccc(Cl)c4)CC3)cc(C)nc21 , thanks.
-- reply -82.8

-- ask inhibition lookup needed for Cc1cccc(N2CC(C)Cn3c2nc2c3c(=O)n(CC(=O)OCc3ccccc3)c(=O)n2C)c1 (stereo not drawn) , thanks.
-- reply 87.5

-- ask inhibition lookup needed for O=C(CSc1nc2ccccc2[nH]1)c1cccs1 , thanks.
-- reply 42.9

-- ask inhibition lookup needed for C#CCOCCOCCOCCNc1nc(N2CCN(C(=O)[C@H](C(C)C)n3cc(CCO)nn3)CC2)nc(N2CCN(C(=O)[C@H]([C@@H](C)CC)n3cc(CCCN=C(N)N)nn3)CC2)n1 , thanks.
-- reply 70

-- ask inhibition lookup needed for COc1ccccc1CSc1nc2ccccc2[nH]1 , thanks.
-- reply -54.8

Further cases:
-- ask inhibition lookup needed for Cc1cc(C)c2c(n1)nn1c(N3CCOCC3)cc(C)nc21 , thanks.
-- reply 74.3

Cited source for all entries: PubChem BioAssay AID1273
